# ASSAY_TARGET: Muscarinic acetylcholine receptor M5 (Homo sapiens, UniProt P08912)
# Sequence (P08912 whole entry): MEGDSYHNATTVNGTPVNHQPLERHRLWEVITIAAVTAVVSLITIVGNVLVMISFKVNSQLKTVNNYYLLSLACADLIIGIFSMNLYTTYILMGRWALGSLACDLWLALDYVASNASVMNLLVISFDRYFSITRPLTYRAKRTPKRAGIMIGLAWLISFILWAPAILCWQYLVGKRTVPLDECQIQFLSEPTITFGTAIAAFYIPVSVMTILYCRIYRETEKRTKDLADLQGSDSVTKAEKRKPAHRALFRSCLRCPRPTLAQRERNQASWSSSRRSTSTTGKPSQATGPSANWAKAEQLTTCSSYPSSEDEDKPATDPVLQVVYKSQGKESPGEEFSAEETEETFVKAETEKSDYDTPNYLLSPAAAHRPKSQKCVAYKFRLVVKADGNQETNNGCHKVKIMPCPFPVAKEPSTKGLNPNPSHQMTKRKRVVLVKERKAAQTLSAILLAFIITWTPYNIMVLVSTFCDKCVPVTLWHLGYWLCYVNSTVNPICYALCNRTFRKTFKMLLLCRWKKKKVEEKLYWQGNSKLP
# METHOD_SUMMARY: Antagonist activity at human muscarinic M5 receptor assessed as inhibition of acetylcholine-induced calcium mobilization
ENDPOINT_LABEL: IC50

Query O=C(C1CN(S(=O)(=O)c2cccc3cnccc23)C1)N1CC2CN(c3ccncc3)CC2C1 (configuration not stated) yields IC50 of > 10 µM

Input O=C(C1CN(S(=O)(=O)c2cccc3cnccc23)C1)N1CCN(c2ccncc2)CC1 . Output IC50: > 10 µM

---

Assign Activity to each entry below.
# ASSAY_TARGET: Muscarinic acetylcholine receptor M1 (Homo sapiens) (UniProt P11229)
# METHOD_SUMMARY: Antagonist activity at human muscarinic M1 receptor expressed in CHO cells assessed as inhibition of acetylcholine-induced calcium mobilization at 30 uM measured after 15 mins by fluorescence analysis
# Assay type: functional, cell-based
# Set-up: scale not given: the % may be the effect or the level left
Provide the measurement as a number trailed by its unit.

Given item O=C(C1CN(S(=O)(=O)c2cccc3cnccc23)C1)N1CCN(c2ccnc(Cl)c2)CC1 , the value recorded as its Activity is 3.6%

Documented Activity of O=C(C1CN(S(=O)(=O)c2cccc(Cl)c2Cl)C1)N1CCN(c2ccncc2)CC1 : 3.5%

The recorded Activity for O=C(C1CN(S(=O)(=O)c2cccc(F)c2)C1)N1CC2CN(c3ccncc3)CC2C1 (stereo not drawn) is 18.9%

The recorded Activity for entry O=C(C1CCCN(S(=O)(=O)c2cccc3nsnc23)C1)N1CCN(c2ccncc2)CC1 (racemic) equals 33.4%

For record O=C(C1CN(S(=O)(=O)c2cccc3cnccc23)C1)N1CCN(c2ccncn2)CC1 the listed Activity is 7.3%

Measured Activity, O=C(C1CN(S(=O)(=O)c2ccc3c(c2)OCO3)C1)N1CCN(c2ccncc2)CC1 : 5.3%

Note to self: Activity recorded for Cn1cc(S(=O)(=O)N2CC(C(=O)N3CCN(c4ccncc4)CC3)C2)cn1 was 12.3%

Form: compound = O=C(C1CN(S(=O)(=O)c2cccc3c2OCO3)C1)N1CC2CN(c3ccncc3)CC2C1 (stereo not drawn) ; Activity = 13.5%

Record summary for O=C(C1CN(S(=O)(=O)c2cccc3ncccc23)C1)N1CCN(c2ccncc2)CC1 : reported Activity = 8.8%

// field: Activity; key: O=C(C1CN(S(=O)(=O)c2cccc3nonc23)C1)N1CC2CN(c3ccncc3)CC2C1 (stereo not drawn) ; value = 12.6%

GET /value?item= O=C(C1CN(S(=O)(=O)c2ccccc2OC(F)(F)F)C1)N1CCN(c2ccncc2)CC1 &field=Activity returns 8.4%

Sure, the documented Activity for O=C(C1CN(S(=O)(=O)c2cccc3c(Cl)nc(Cl)cc23)C1)N1CCN(c2ccncc2)CC1 is 12.7%

Activity in this record for O=C(C1CN(S(=O)(=O)c2ccc(Cl)nc2)C1)N1CCN(c2ccncc2)CC1 : 5.7%

// Activity value for COc1ccc(S(=O)(=O)N2CC(C(=O)N3CCN(c4ccncc4)CC3)C2)cn1 : 20.6%

Please fill in: Activity reported for Cc1cc(S(=O)(=O)N2CC(C(=O)N3CCN(c4ccncc4)CC3)C2)cnc1Cl = 4.9%

Lab book: Activity of O=C(C1CN(S(=O)(=O)c2cccc3nsnc23)C1)N1CC2CN(c3ccncc3)CC2C1 (stereo not drawn) noted as 16.2%

Briefly, Activity measured for O=C(C1CN(S(=O)(=O)c2ccc3cn[nH]c3c2)C1)N1CCN(c2ccncc2)CC1 : 33%

The compound listed as O=C(C1CN(S(=O)(=O)c2cccc3c(Cl)nccc23)C1)N1CCN(c2ccncc2)CC1 has a reported Activity of 3.5%

get_value(item= O=C(C1CN(S(=O)(=O)c2cccc(Cl)c2F)C1)N1CCN(c2ccncc2)CC1 , readout=Activity) returns 11.4%

O=C(C1CN(S(=O)(=O)c2cccc(Cl)c2Cl)C1)N1CC2CN(c3ccncc3)CC2C1 (stereo not drawn) yielded Activity of 6.6%

Record O=C(C1CN(S(=O)(=O)c2cccnc2)C1)N1CCN(c2ccncc2)CC1 , field Activity: 4.9%

Recorded result, O=C(C1CN(S(=O)(=O)c2ccc3c(c2)CCO3)C1)N1CCN(c2ccncc2)CC1 , Activity: 3.6%

The measured Activity associated with O=C(C1CN(S(=O)(=O)c2cccc3cnccc23)C1)N1CC2CN(c3ccncc3)CC2C1 (stereo not drawn) reads 2.8%

Reported Activity for O=C(C1CN(S(=O)(=O)c2cccc(F)c2)C1)N1CCN(c2ccncc2)CC1 was 9.5%

Lookup result for O=C(C1CN(S(=O)(=O)c2cccc(Cl)c2)C1)N1CCN(c2ccncc2)CC1 ; measured Activity: 20.7%

Recorded result, O=C(C1CN(S(=O)(=O)c2cccnc2Cl)C1)N1CC2CN(c3ccncc3)CC2C1 (stereo not drawn) , Activity: 9.9%

compound Cc1cnccc1N1CCN(C(=O)C2CN(S(=O)(=O)c3cccc4cnccc34)C2)CC1 , Activity observed: 7.3%

Entry under test: O=C(C1CN(S(=O)(=O)c2cccnc2Cl)C1)N1CCN(c2ccncc2)CC1 . Its Activity was 8.2%

# Activity (compound: O=C(C1CN(S(=O)(=O)c2ccc(C(F)(F)F)nc2)C1)N1CCN(c2ccncc2)CC1 ) is 40.7%

The recorded Activity for entry O=C(C1CN(S(=O)(=O)c2cccc3cnc(Cl)cc23)C1)N1CCN(c2ccncc2)CC1 equals 6%

Per the records, this compound ( Cc1cc2c(S(=O)(=O)N3CC(C(=O)N4CC5CN(c6ccncc6)CC5C4)C3)cccc2cn1 (stereo not drawn) ) has Activity equal to 14.8%

Given item O=C(C1CN(S(=O)(=O)c2cccc3nsnc23)C1)N1CCN(c2ccncc2)CC1 , the value recorded as its Activity is 10.1%

Sample O=C(C1CN(S(=O)(=O)c2ccc(Cl)cn2)C1)N1CCN(c2ccncc2)CC1 ; Activity observed: 38.5%

Kindly note the recorded Activity for Cc1ccnc(S(=O)(=O)N2CC(C(=O)N3CCN(c4ccncc4)CC3)C2)c1 , which is 41.3%

Just so you know, measured Activity for Cc1cc(N2CCN(C(=O)C3CN(S(=O)(=O)c4cccc5cnccc45)C3)CC2)ccn1 came out at 3.1%

Query O=C(C1CN(S(=O)(=O)c2cccc3cnccc23)C1)N1CCN(c2ccncc2)CC1 yields Activity of 2.7%

Activity reported for this compound Cc1cc2c(S(=O)(=O)N3CC(C(=O)N4CCN(c5ccncc5)CC4)C3)cccc2cn1 : 9.8%

For record O=C(C1CN(S(=O)(=O)c2ccc3ncccc3c2)C1)N1CCN(c2ccncc2)CC1 the listed Activity is 8%

---

# ASSAY_TARGET: Cytochrome P450 1A2 (Homo sapiens, UniProt P05177)
# Sequence (P05177 whole entry): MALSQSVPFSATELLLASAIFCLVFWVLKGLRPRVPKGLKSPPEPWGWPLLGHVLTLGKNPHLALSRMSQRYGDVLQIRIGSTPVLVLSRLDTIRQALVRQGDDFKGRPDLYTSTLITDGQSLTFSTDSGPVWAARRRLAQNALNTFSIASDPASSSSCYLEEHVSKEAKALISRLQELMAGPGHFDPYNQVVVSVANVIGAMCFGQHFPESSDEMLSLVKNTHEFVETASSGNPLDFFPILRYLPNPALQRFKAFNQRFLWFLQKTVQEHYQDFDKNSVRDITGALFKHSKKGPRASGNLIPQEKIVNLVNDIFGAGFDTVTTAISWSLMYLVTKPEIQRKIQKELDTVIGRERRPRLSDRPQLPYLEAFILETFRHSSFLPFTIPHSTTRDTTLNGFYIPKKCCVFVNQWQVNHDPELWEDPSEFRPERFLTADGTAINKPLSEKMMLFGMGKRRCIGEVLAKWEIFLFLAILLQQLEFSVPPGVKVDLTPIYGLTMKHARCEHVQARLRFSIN
# METHOD_SUMMARY: Inhibition of CPY1A2
pIC50: −log10 of the molar value.
ENDPOINT_LABEL: pIC50

Record summary for O=C(C1CN(S(=O)(=O)c2cccc3cnccc23)C1)N1CC2CN(c3ccncc3)CC2C1 (stereo unspecified) : reported pIC50 = < 4.52

---

# ASSAY_TARGET: Cytochrome P450 2D6 (Homo sapiens, UniProt P10635)
# Sequence (P10635 whole entry): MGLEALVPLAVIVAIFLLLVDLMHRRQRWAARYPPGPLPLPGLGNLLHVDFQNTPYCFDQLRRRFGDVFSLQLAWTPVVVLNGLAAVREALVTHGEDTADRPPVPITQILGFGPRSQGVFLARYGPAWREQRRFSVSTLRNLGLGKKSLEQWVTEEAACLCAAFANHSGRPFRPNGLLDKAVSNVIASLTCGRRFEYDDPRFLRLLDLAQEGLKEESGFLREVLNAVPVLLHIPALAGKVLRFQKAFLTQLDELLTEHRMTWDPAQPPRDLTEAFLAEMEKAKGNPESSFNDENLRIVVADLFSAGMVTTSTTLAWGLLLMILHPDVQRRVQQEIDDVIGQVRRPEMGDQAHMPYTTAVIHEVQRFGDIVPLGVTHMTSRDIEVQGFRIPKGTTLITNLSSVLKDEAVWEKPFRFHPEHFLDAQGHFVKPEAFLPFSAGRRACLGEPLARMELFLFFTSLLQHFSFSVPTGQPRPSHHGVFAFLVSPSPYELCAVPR
ENDPOINT_LABEL: IC50

Value of measured IC50 for the entry O=C(C1CN(S(=O)(=O)c2cccc3cnccc23)C1)N1CC2CN(c3ccncc3)CC2C1 (stereo unspecified) : < 2500 nM

---

# ASSAY_TARGET: Muscarinic acetylcholine receptor M1 (Homo sapiens, UniProt P11229)
# METHOD_SUMMARY: Antagonist activity at human muscarinic M1 receptor expressed in CHO cells assessed as inhibition of acetylcholine-induced calcium mobilization by fluorescence analysis
# Type: functional, cell-based
# TEST_CONDITIONS: read-out: IC50
ENDPOINT_LABEL: IC50 (µM)
# output: bare number, implied unit µM

Entry O=C(C1CN(S(=O)(=O)c2ccc3occc3c2)C1)N1CCN(c2ccncc2)CC1 , IC50 reported as 2.3

Reported IC50 for O=C(C1CN(S(=O)(=O)c2cccc3cnc(Cl)cc23)C1)N1CCN(c2ccncc2)CC1 was 1.6

Please fill in: IC50 reported for Cn1cc(S(=O)(=O)N2CC(C(=O)N3CCN(c4ccncc4)CC3)C2)cn1 = 1.2

Just so you know, measured IC50 for Cc1nc(C(F)(F)F)c(S(=O)(=O)N2CC(C(=O)N3CCN(c4ccncc4)CC3)C2)s1 came out at 2.5

---

# ASSAY_TARGET: Muscarinic acetylcholine receptor M1 (Homo sapiens, UniProt P11229)
# Sequence (P11229 whole entry): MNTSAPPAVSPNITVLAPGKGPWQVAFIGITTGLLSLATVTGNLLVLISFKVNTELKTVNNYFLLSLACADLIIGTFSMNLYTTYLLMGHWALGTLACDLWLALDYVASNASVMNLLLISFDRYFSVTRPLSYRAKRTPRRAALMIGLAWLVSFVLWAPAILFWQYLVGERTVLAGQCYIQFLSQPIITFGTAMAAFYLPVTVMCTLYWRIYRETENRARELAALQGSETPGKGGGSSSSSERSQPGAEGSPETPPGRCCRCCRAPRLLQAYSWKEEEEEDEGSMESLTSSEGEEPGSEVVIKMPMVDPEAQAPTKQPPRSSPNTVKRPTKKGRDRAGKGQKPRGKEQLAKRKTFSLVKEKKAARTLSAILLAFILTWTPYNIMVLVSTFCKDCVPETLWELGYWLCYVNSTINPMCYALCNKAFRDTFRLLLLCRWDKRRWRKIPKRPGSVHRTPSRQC
# METHOD_SUMMARY: Antagonist activity at human muscarinic M1 receptor expressed in CHO cells assessed as inhibition of acetylcholine-induced calcium mobilization by fluorescence analysis
# Format: functional, cell-based
# TEST_CONDITIONS: read-out: IC50
ENDPOINT_LABEL: IC50 (µM)
Respond with the bare value in µM.

The molecule identified as O=C(C1CN(S(=O)(=O)c2cccc3c(Cl)nccc23)C1)N1CCN(c2ccncc2)CC1 registered its IC50 at 0.74

Note to self: IC50 recorded for Cc1noc(C)c1S(=O)(=O)N1CC(C(=O)N2CCN(c3ccncc3)CC2)C1 was 2.3

Entry O=C(C1CN(S(=O)(=O)c2cccc3nonc23)C1)N1CC2CN(c3ccncc3)CC2C1 (centres undefined) ; IC50 = 2

Quick note, IC50 for O=C(C1CN(S(=O)(=O)c2cccc(Cl)c2Cl)C1)N1CCN(c2ccncc2)CC1 landed at 0.84

Entry Cc1cnccc1N1CCN(C(=O)C2CN(S(=O)(=O)c3cccc4cnccc34)C2)CC1 ; IC50 = 0.51

get_value(item= O=C(C1CN(S(=O)(=O)c2cccc3nonc23)C1)N1CCN(c2ccncc2)CC1 , readout=IC50) returns 0.43

Summary for this molecule, O=C(C1CN(S(=O)(=O)c2cccc3nsnc23)C1)N1CCN(c2ccncc2)CC1 : IC50 is 2.2
